Origin of values: patent US20230287217A1

// reported Brightness for each item listed
assay_method_text: UV-Vis absorption and fluorescence spectroscopy (spectral properties in aqueous media / PBS buffer)
Assay type: physicochemical
Set-up: unit not given here
test_conditions: aqueous media
Lab note: record the figure alone, no unit after it.

Completed entries (count: 5):
structure: Cc1ccccc1-c1c2cc/c(=[N+](/C)CCCS(=O)(=O)[O-])cc-2oc2cc(N(C)C)ccc12
readout_label: Brightness
value_measured: 59
--
structure: Cc1cc(C(=O)NCc2ccc(COc3nc(N)nc4[nH]cnc34)cc2)ccc1-c1c2cc/c(=[N+](/C)CCCS(=O)(=O)[O-])cc-2oc2cc(N(C)C)ccc12
readout_label: Brightness
value_measured: 21
--
structure: C#Cc1cccc(Nc2ncnc3ccc(NC(=O)CCNC(=O)c4ccc(C(=O)[O-])c(C5=C6C=CC(=[N+](C)C)C=C6[Si](C)(C)c6cc(N(C)C)ccc65)c4)cc23)c1
readout_label: Brightness
value_measured: 5
--
structure: Cc1cc(C(=O)O)ccc1-c1c2cc/c(=[N+](/C)CCCS(=O)(=O)[O-])cc-2oc2cc(N(C)C)ccc12
readout_label: Brightness
value_measured: 78
--
structure: Cc1ccccc1C1=C2C=C/C(=[N+](/C)CCCS(=O)(=O)[O-])C=C2[Si](C)(C)c2cc(N(C)C)ccc21
readout_label: Brightness
value_measured: 55

Now consider a different compound.
// field: Brightness; key: `CN(C)c1ccc2c(c1)[Si](C)(C)C1=CC(=[N+](C)C)C=CC1=C2c1cc(C(=O)NCCCn2cc(-c3cccc(Nc4ncnc5ccccc45)c3)nn2)ccc1C(=O)[O-]` ; value = 5
